tested_system: InhA^WT (Mycobacterium tuberculosis)
Sequence (P9WGR1 whole entry, looked up): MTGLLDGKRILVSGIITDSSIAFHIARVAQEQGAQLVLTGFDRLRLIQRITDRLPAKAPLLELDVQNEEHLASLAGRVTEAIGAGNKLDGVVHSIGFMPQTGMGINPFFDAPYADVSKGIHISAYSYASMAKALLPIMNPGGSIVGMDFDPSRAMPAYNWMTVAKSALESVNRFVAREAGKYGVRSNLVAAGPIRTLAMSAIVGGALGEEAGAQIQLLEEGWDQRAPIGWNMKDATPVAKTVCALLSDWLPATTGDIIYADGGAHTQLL
Format: biochemical
settings: read-out: Ki^app
reported_metric: pKi
# reply with the number alone; pKi is -log10 of concentration in mol/L

Incoming: May I ask what pKi has been recorded for CCCCCCc1ccc(Oc2ccccc2C)c(O)c1 [PT70, 2-(o-tolyoxy)-5-hexylphenol] ?
Outgoing: 6.59

src = paper PMC4805124
